Biological target: panel of 203 kinases (Homo sapiens, UniProt P49840)
Construct: purchased DiscoverX (KINOMEscan)
Sequence (P49840 whole entry): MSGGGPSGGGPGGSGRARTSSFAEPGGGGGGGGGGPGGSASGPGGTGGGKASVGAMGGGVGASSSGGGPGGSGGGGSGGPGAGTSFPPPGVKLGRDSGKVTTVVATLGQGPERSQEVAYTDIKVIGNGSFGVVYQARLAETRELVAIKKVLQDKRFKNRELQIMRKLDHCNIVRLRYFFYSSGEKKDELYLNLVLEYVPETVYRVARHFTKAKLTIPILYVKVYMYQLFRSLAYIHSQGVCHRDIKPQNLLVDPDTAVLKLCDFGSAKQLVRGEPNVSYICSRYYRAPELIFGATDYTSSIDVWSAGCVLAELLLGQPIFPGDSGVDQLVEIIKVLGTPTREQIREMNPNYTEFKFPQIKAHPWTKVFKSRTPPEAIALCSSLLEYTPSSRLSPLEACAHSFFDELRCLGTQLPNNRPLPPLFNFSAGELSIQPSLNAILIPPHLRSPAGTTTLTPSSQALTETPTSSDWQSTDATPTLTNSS
Assay: KINOMEscan competitive binding, whole panel
Conditions: 10 µM, n=1; kinase GSK3A; read-out: Percent inhibition GSK3A
Property Label: inhibition at 10 µM (%)
Express your answer in %, writing the number without its unit.

The cases that follow already have their inhibition at 10 µM on record.
- Smiles String: "Clc1ccc(Nc2ncc(-c3ccccc3)s2)cc1"
  Measurement Target: "panel of 203 kinases (Homo sapiens, UniProt P49840)"
  Property Label: "inhibition at 10 µM"
  Value Observed: 0
- Smiles String: "C[C@@H](Oc1cc(-c2cnc3ccccn23)sc1C(N)=O)c1ccccc1Cl"
  Measurement Target: "panel of 203 kinases (Homo sapiens, UniProt P49840)"
  Property Label: "inhibition at 10 µM"
  Value Observed: 0

Query block: Please look up its inhibition at 10 µM: `Cc1ccc(O)cc1N(C)c1ccnc(Nc2cccc(S(N)(=O)=O)c2)n1`
Result block: 91.3

Query block: Please look up its inhibition at 10 µM: `COc1cc(Nc2nccc(-c3sc(N)nc3-c3cccc(NC(=O)c4c(F)cccc4F)c3)n2)cc(OC)c1OC`
Result block: 0
